target: porcine pancreatic elastase (Sus scrofa, UniProt P00772); assay: Inhibition of porcine pancreatic (PP) elastase in vitro, substrate BOC-Ala-ONp, Lineweaver-Burk and Dixon plots; format: biochemical; conditions: Table 2, changes in P1; PP elastase; read-out: Ki
Sequence (P00772 27-266): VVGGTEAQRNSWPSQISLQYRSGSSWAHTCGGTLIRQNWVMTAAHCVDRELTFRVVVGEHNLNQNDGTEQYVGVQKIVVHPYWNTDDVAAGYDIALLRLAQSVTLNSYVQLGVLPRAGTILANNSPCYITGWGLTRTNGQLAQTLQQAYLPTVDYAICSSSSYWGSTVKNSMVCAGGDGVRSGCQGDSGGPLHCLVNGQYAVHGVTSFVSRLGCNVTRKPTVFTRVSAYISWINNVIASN
PROPERTY LABEL: Ki (µM)
Give bare numbers, in µM.

Q: # lookup: Ki of CCCN(CC(=O)[C@@H]1CCCN1C(=O)[C@H](C)NC(=O)[C@H](C)NC(=O)CCC(=O)OC)C(=O)Oc1ccc([N+](=O)[O-])cc1
Ans: 30.5

---

Biological target: porcine pancreatic elastase (Sus scrofa, UniProt P00772)
Assay: Inhibition of porcine pancreatic (PP) elastase in vitro, substrate BOC-Ala-ONp, Lineweaver-Burk and Dixon plots
Assay type: biochemical
Settings: Table 1, changes in P1'; PP elastase; read-out: Ki
Description: As pointed out above, the compounds of the invention are useful as elastase inhibitors. […] The rate and extent of inhibition could be effected by varying the structure of R and R'. […] In all these cases the inhibition was studied at different substrate and inhibitor concentrations and the mode of inhibition determined from Lineweaver-Burk and Dixon plots. Ki values were calculated from the latter. […]
Record form. Attribute: pKi. Fill in for each entry.
Answers are plain numbers, as −log10 of the molar value.

// solved cases for pKi follow
Q: Any idea what its pKi is? The compound is COC(=O)CCC(=O)N[C@@H](C)C(=O)N[C@@H](C)C(=O)N1CCC[C@H]1C(=O)CN(C(=O)Sc1nnnn1C)C(C)C
Ans: 4.83

Q: Item under review: COC(=O)CCC(=O)N[C@@H](C)C(=O)N[C@@H](C)C(=O)N1CCC[C@H]1C(=O)CN(C(=O)Oc1ccc([N+](=O)[O-])cc1)C(C)C . Reported pKi?
Ans: 4.37

Q: Param item = COC(=O)CCC(=O)N[C@@H](C)C(=O)N[C@@H](C)C(=O)N1CCC[C@H]1C(=O)CN(C(=O)Oc1ccccc1)C(C)C ; retrieve measured pKi.
Ans: 4.49

Here is another compound to look at.
Q: Name the recorded pKi for COC(=O)CCC(=O)N[C@@H](C)C(=O)N[C@@H](C)C(=O)N1CCC[C@H]1C(=O)CN(C(=O)Oc1c(F)c(F)c(F)c(F)c1F)C(C)C .
Ans: 4.43

---

molecular target: porcine pancreatic elastase (Sus scrofa); test: Inhibition of porcine pancreatic (PP) elastase in vitro, substrate BOC-Ala-ONp, Lineweaver-Burk and Dixon plots; type: biochemical
PROPERTY LABEL: Ki
Remember to quote the unit after the number.

Q: Please report the recorded Ki for CC(C)N(CC(=O)[C@@H]1CCCN1C(=O)[C@H](C)NC(=O)[C@H](C)NC(=O)C(F)(F)F)C(=O)Oc1c(F)c(F)c(F)c(F)c1F .
Ans: 49 µM
